- experimental.system: Adenosine A2A receptor (Homo sapiens, UniProt P29274)
- Sequence (P29274 whole entry): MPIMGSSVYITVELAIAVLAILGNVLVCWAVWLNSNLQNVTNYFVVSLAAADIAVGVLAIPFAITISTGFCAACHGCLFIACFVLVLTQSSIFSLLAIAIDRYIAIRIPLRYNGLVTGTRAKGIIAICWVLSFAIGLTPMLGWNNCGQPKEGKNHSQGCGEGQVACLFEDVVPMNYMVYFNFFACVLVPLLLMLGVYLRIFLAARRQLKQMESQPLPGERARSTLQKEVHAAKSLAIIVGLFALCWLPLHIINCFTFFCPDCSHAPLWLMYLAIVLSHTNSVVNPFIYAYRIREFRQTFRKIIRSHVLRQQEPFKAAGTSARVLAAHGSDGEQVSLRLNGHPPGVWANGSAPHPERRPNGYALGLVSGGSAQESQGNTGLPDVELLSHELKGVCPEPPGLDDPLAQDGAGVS
- method.notes: cAMP assay in 293A cells stably expressing the adenosine A2A receptor (CGS21680 stimulation, HTRF)
- Type: cell-based
- Parameters: expressed in transfected cells; host or cells: 293A cells (Invitrogen, Cat# R705-07) infected with A2A-expressing lentivirus (custom packaged by Biosettia), puromycin selected
- test.conditions: 293A-A2AR cells, 0.1% BSA, 8 nM CGS; values separated by / are repeat determinations; read-out: cAMP (nM) 0.1% BSA, 8 nM CGS
- Description: A 293A cell line (Invitrogen, Cat# R705-07) stably expressing the adenosine A2A receptor was generated in house. Briefly, 293A cells were seeded in 6-well plate and infected with A2A expressing lentivirus (custom packaged by Biosettia) and selected with puromycin (1 ug/ml). […] After 1 h incubation at room temperature, plates were read in CIARIOstar plate reader (BMG Labtech) using the HTRF detection mode.
result.type: IC50 (nM)

a = Cc1cc(-c2c(OCCN(CCO)c3ccccn3)nc(N)nc2-c2ccc(F)cc2)cc(C(F)F)n1
b = Cc1cc(-c2c(OCc3nccn3CC(C)C)nc(N)nc2-c2ccc(F)cc2)cc(C(F)F)n1
Request: Compare the recorded IC50 of a and b ; state which is larger. # answer = label of selected item
Result: b

A = Cc1cc(-c2c(OCc3cccc(CO[C@H]4CCOC4)n3)nc(N)nc2-c2ccccc2)cc(C(F)(F)F)n1
B = CCc1c(COc2nc(N)nc(-c3ccc(F)cc3)c2-c2cc(C)nc(C(F)F)c2)nnn1C
C = Cc1cc(-c2c(OCc3nccn3C3COC3)nc(N)nc2-c2ccc(F)cc2)cc(C(F)F)n1
D = CCN(CC)C(=O)COc1nc(N)nc(-c2ccccc2)c1-c1cc(C)nc(C(F)(F)CC)c1
Request: Hey, quick one: sort these by IC50, low to high? A complete answer lists every label in the requested sequence.
Result: B, C, D, A
(B: 2.3 nM, C: 4.1 nM, D: 7.5 nM, A: 11.5 nM)

P = CCN(CCO)C(=O)COc1nc(N)nc(-c2ccc(F)cc2)c1-c1cc(C)nc(C(F)F)c1
Q = Cc1cc(-c2c(O[C@H](C)CO)nc(N)nc2-c2ccc(F)cc2)cc(C(F)F)n1
Request: Returns the identifier with the smallest measured IC50 among P and Q . Output the label that corresponds to your choice.
Result: P
(P: 2.2 nM, Q: 3.6 nM)
